molecular target: hKOR (Homo sapiens); construct: host or cells: U2OS (PathHunter U2OS-hKOR-βarrestin2-DX), purchased engineered cell line; assay: βArrestin2 recruitment (DiscoveRx PathHunter) assay; format: cell-based; conditions: U2OS-hKOR-βarrestin2-DX cells, 1 μM U69,593, n ≥ 3; read-out: IC50 (nM) ± S.E.M. βarr2
Sequence (P41145 whole entry): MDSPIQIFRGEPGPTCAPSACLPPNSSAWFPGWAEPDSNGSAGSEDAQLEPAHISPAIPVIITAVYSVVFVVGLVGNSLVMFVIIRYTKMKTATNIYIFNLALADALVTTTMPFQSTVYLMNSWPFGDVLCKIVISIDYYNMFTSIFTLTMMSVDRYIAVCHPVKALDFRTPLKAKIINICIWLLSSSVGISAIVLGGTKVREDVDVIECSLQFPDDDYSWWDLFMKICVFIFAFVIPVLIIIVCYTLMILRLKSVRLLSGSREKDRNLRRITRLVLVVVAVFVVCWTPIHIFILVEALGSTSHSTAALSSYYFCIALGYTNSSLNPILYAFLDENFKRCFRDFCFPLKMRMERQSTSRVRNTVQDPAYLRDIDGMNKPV
# note: boundary value 700 nM maps to no; IC50 below it maps to yes

Query: Does the reported IC50 of the following molecule sit strictly below 700 nM? Cc1ccc(S(=O)(=O)N2CCc3cc(C(=O)NCCN(Cc4ccc(Br)cc4)C(C)(C)C)ccc3C2)cc1 [Compound 1m]
Reply: yes

Query: Does Cc1ccc(S(=O)(=O)N2CCc3cc(C(=O)NCCN(Cc4ccccc4)C(C)(C)C)ccc3C2)cc1 [Compound 1h] have IC50 strictly under 700 nM?
Reply: yes

Query: Please determine if Cc1cc(C)c(S(=O)(=O)N2CCc3cc(C(=O)NCCN(Cc4ccccc4)C(C)C)ccc3C2)c(C)c1 [Compound 1c] is below 700 nM in terms of IC50.
Reply: no

Query: Report whether reported IC50 is lower than 700 nM (strictly) for CCc1ccc(S(=O)(=O)N2CCc3cc(C(=O)NCCN(Cc4ccc(Br)cc4)C(C)C)ccc3C2)cc1 [Compound 1g]
Reply: yes

====

Exercise: state measured IC50 for each of the molecules provided.
target: human kappa opioid receptors (Homo sapiens); construct: HA; expressed in transfected cells; host or cells: Chinese hamster ovary (CHO) cells, virally transfected; assay: [35S]GTPγS binding (G protein coupling) assay, antagonism of U69,593; assay type: biochemical; conditions: CHO-hKOR membranes, 100 nM U69,593, n ≥ 3; read-out: IC50 (nM) ± S.E.M. [35S]GTPγS
Sequence (P41145 whole entry): as above
Field: numeric (nM). Do not append units.

Lab note: measured IC50 of Cc1ccc(S(=O)(=O)N2CCc3cc(C(=O)NCCN(Cc4ccccc4)C(C)(C)C)ccc3C2)cc1 was 5.28

IC50 measured on Cc1ccc(S(=O)(=O)N2CCc3cc(C(=O)NCCN(Cc4ccc(Br)cc4)C(C)(C)C)ccc3C2)cc1 = 2.9

Reported IC50 of Cc1cc(C)c(S(=O)(=O)N2CCc3cc(C(=O)NCCN(Cc4ccccc4)C(C)C)ccc3C2)c(C)c1 : 113

IC50 measured on CCc1ccc(S(=O)(=O)N2CCc3cc(C(=O)NCCN(Cc4ccc(Br)cc4)C(C)C)ccc3C2)cc1 = 33

Per the record, Cc1cc(C)c(S(=O)(=O)N2CCc3cc(C(=O)NCCN(Cc4ccc(Br)cc4)C(C)(C)C)ccc3C2)c(C)c1 has IC50 of 106
